B1: HDV Ribozyme (parent)
chain: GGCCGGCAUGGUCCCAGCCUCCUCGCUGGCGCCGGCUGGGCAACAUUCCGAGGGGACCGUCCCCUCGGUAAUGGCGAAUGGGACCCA

# Variants of: B1
# Protocol notes: self-cleavage, relative activity (ratio to wild type); higher = more cleavage; co-transcriptional
// reported self-cleavage per item
Could you respond with only the numeric value?

- Chain: "GGCCGGCAUGGUCCCAGCCUCCUCGCUGGCGCCGGCUGGGCAACAUUCCGAGGGGAGCGUCCCCUCGGUAAUGGCGAAUUGGACCCA"
  Observed: 0.25

[in] Query (variant): "GGCCGGCAUGGUCCCAGCCUCCUCGCUAGCGCCGGCUGGGCAACAUUACGAGGGGACCGUCCCCUCGGUAAUGGCGAAUGGGACCCA" ; field requested: self-cleavage
[out] 0.0978

[in] Next: "GGCCGGCAUGGUCCCUGCCUCCUCGCUGGCGCCGGCUGGGCAACAUUCCGAGGGGACCGUCCCCUCGGUAAUGGCGGAUGGGACCCA"
[out] 0.739

[in] Next: "GGCCGGCAUGGUCCCAGCCUCCUCGCUGGCGCCGGCUGGGCAACAUUCCGAGGGGACCGUCCCCUUGGUAAUGGCGAAUGGGAUCCA"
[out] 0.683

[in] Next: "GGCCGGCAAGGUCCCAGCCUCCUCGCUGGCGCCGGCUGGGCAACAUUCCGAGGGAACCGUCCCCUCGGUAAUGGCGAAUGGGACCCA"
[out] 1.09

[in] Next: "GGCCGGCAUGGUCCCAGCCUCCUCGAUGGCGCCGGCUGGGCAACAUUCCGAGGGGACCGUCCCCUAGGUAAUGGCGAAUGGGACCCA"
[out] 0.909

[in] Next: "GGCCGGCAUGGUCCCAGCCCCCUCGCUGGCGCCGGCUGGGCAACAUUCCGAGGGGACCGUCCCCUUGGUAAUGGCGAAUGGGACCCA"
[out] 0.0831

[in] Next: "GGCCGGCAUGGUCCCAGCCUCCUCGCUGGCGCCUGCUGGGCAACAUUCCGAGGGGACCGUCCCCUCGGUAAUGGCGAAUGCGACCCA"
[out] 0.144

[in] Next: "GGCCGGCAUGGUCCUAGCCUCCUCGCUGGCGCCGGCUGGGCAACAUUCCGAGGGGACCGUACCCUCGGUAAUGGCGAAUGGGACCCA"
[out] 1.27
